Hi there, I'd appreciate the recorded GI50 for every entry that follows.
System: SF-268
Experiment: NCI tumour cell line growth inhibition, 48 h
Activity calls are given as the source filed them. No stated cut-off is given here; in the data, active = GI50 up to about 1.1 µM and inactive = higher.

Example results:
>>> endpointresult("C=C(C)[C@@H]1CCc2c(c(C)cc(O)c(=O)c2O)C1")
"2.88 µM (inactive)"
>>> endpointresult("Cc1cc(O)c2c(c1O)C(=O)c1cccc(O)c1C2=O")
"> 100 µM (inactive)"
>>> endpointresult("COC1C(O)C(C)OC(O[C@H]2CC[C@@]3(C)C(CC[C@@H]4[C@@H]3CC[C@]3(C)[C@@H](C(C)OC5OC(CO)C(O)C(O)C5O)CC[C@]43O)C2)C1O (stereo partly drawn)")
"> 25 µM (inactive)"
>>> endpointresult("COc1ccc(/N=N/C(=O)NC(CC(C)C)C(=O)NC(CC(C)C)C(=O)O)cc1 (stereo not drawn)")
"16.9 µM (inactive)"

Record GI50 for all entries; do not skip any.
1. COc1ccc(C)cc(O)c1=O
2. O=C1CCCCC1=C(I)I
3. CCCN(CCC)C(=S)Sc1nc(C)nc(N2CCN(c3nc(C)nc(SC(=S)N(CCC)CCC)c3[N+](=O)[O-])CC2)c1[N+](=O)[O-]
4. O=C(COc1ccc(OCC(=O)N2C(=O)CN(c3ccccc3)C2=S)cc1)N1C(=O)CN(c2ccccc2)C1=S

["28.6 µM (inactive)", "19.4 µM (inactive)", "18.8 µM (inactive)", "> 59.4 µM (inactive)"]
